Hey, just so you know, these numbers are from PubChem BioAssay (NCI).

// reported growth inhibition for each item listed
Protocol Text: NCI Yeast Anticancer Drug Screen. Data for the rad50 strain (AID 155);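 note: 0% = growth of vehicle-only cultures of the same strain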
Experimental Context: S. cerevisiae rad50 strain growth inhibition; at 3.7 µM; active compounds read high
The panel holds about 79,000 compounds, 15% with a hit somewhere; the sample as a whole holds those more often.
State the answer as a number, implicitly in %.

Would you please look over these solved cases?
compound="COC(=O)C1=C(C)NC(C)=C(C(=O)OCCCN2CCC(c3ccccc3)(c3ccccc3)CC2)C1c1cccc([N+](=O)[O-])c1 (stereo not given)" number=48
compound="O=[N+]([O-])CC(SCc1ccccc1)c1ccc2c(c1)OCO2 (stereo not given)" number=69
compound=c1ccc2c(c1)C(=NCCCN1CCCCCC1)c1cccn1-2 number=-8
compound=COc1ccc2nc3c([N+](=O)[O-])ccc(NCCN(C)C)c3c(NCCN(C)C)c2c1 number=0
compound=COc1ccc(NC(=S)N/N=C(\c2ccccc2)c2ccccn2)cc1 number=1

What value of growth inhibition has been recorded for this entry: `Cc1nn(-c2cc(Cl)ccc2[N+](=O)[O-])c(C)c1Cl` 1

What value of growth inhibition has been recorded for this entry: `CC(C)/C(Cl)=N\OC(=O)Nc1ccccc1F` 17

---

Protocol Text: NCI Yeast Anticancer Drug Screen. Data for the mec2-1 strain (AID 157)
Experimental Context: S. cerevisiae mec2-1 strain, at 5.0 µM (retest, dose inferred, filed as 0.5), active compounds read high
About 79,000 compounds went through this panel and 15% of them were active in at least one assay; those are over-represented in the sample as a whole.
If the reported growth inhibition equals or exceeds 10%, assign YES. If not, assign NO.

Study these solved cases before continuing.
compound=c1ccc2c(c1)sc1cc3ccncc3cc12 group_label=YES
compound="C=C1CC(Cn2cc(Br)c(=O)[nH]c2=O)(c2ccc(-c3ccccc3)cc2)OC1=O (stereo unspecified)" group_label=YES
compound=CN(C)CCOc1ccc2c(c1)C/C(=C/c1ncc([N+](=O)[O-])n1C)C2=O group_label=YES
compound=O=C1C=CC(=O)c2c(O)c(Nc3ccc(OC(F)(F)F)cc3)c(Cl)c(O)c21 group_label=NO
compound=O=[N+]([O-])c1cccc2nccc(NCCCO)c12 group_label=YES

Could you verify whether the entry CCOP(=O)(OCC)C(Cc1ccccc1)N=C(c1ccccc1)c1ccccc1 (stereo unspecified) shows growth inhibition of no less than 10%? NO

Could you verify whether the entry O=C1OC(=O)C2CCCC3CCCC1C32 (stereo unspecified) shows growth inhibition of no less than 10%? NO

Could you verify whether the entry `O=[N+]([O-])c1cccc([N+](=O)[O-])c1S(=O)(=O)c1ccccc1` shows growth inhibition of no less than 10%? YES

Could you verify whether the entry `CN(Cc1cnc2nc(N)nc(N)c2n1)c1ccc(C(=O)N[C@@H](CCC(=O)O)C(=O)O)cc1` shows growth inhibition of no less than 10%? YES

Could you verify whether the entry `S=C(N/N=C/c1ccccn1)Nc1ccc(Cl)cc1` shows growth inhibition of no less than 10%? YES

Could you verify whether the entry `Cc1ccc(S(=O)(=O)Oc2cc(Cl)c(Cl)cc2Cl)cc1` shows growth inhibition of no less than 10%? NO

---

Protocol Text: NCI Yeast Anticancer Drug Screen. Data for the mec2-1 strain (AID 157)
Experimental Context: S. cerevisiae mec2-1 strain, at 50.0 µM, active compounds read high
About 79,000 compounds went through this panel and 15% of them were active in at least one assay; those are over-represented in the sample as a whole. The source made the active and inactive calls. Cut-off read from the data, not from the text of the source: active = growth inhibition above about 70%; inactive = the rest.
Readout Label: growth inhibition

Would you please look over these solved cases?
compound=CC(/C=C/c1ccc(Cl)cc1)=N\NC(=S)NCC(C)C result="66.7% (inactive)"
compound="CC(O)C(O)C(O)C(/C=N\\Nc1ccccc1)=N/Nc1ccccc1 (stereo not given)" result="58.3% (inactive)"

What value of growth inhibition has been recorded for this entry: Nc1ccn(C2OC(CO)C3[O][Sn]([c]4ccccc4)([c]4ccccc4)[O]C32)c(=O)n1 (stereo not given) 95.5% (active)

What value of growth inhibition has been recorded for this entry: `CCCCCCCCNC(=O)C1=C(C)NC(C)=C(C(=O)NCCCCCCCC)C1` -5.25% (inactive)

What value of growth inhibition has been recorded for this entry: `CCOC(=O)c1cnc2c(C(F)(F)F)cccc2c1N=[N+]=[N-]` 17.6% (inactive)
